Test: Retention time of the compound by LC-MS method
Where Retention time equals or exceeds 6 min, the correct label is yes; where it does not, the label is no.

# compound, label-value
measured = [
    ("COCC(C(=O)N1C=CN(c2cccc(C(F)(F)F)c2)CC1)N1C(=O)CCC1=O (stereo unspecified)", "yes"),
    ("COCC(C(=O)N1CCN(c2cccc(Cl)c2)CC1)N1C(=O)CCC1=O (stereo unspecified)", "no"),
    ("COCC(C(=O)N1C=CN(c2ccc(C(F)(F)F)cc2)CC1)N1C(=O)CCC1=O (stereo unspecified)", "yes"),
]

----------
Experiment: Neurotoxicity in ip dosed Albino Swiss CD-1 mouse assessed as induction of motor impairment measured up to 60 secs by chimney test
Type: toxicity, organism-based
Settings: in vivo
In this section we review reported TD50 at 1 min values for a set of molecules.

# molecule, TD50 at 1 min
data = [
    ("COCC(C(=O)N1CCN(c2ccc(Cl)cc2)CC1)N1C(=O)CCC1=O (centres undefined)", "180 to 208 mg/kg"),
    ("CC[C@@H](C(N)=O)N1CCCC1=O [LEVETIRACETAM]", "> 500 mg/kg"),
    ("COCC(C(=O)N1CCN(c2cccc(Cl)c2)CC1)N1C(=O)CCC1=O (centres undefined)", "192 to 226 mg/kg"),
    ("CCCC(CCC)C(=O)O [VALPROIC ACID]", "373 mg/kg"),
    ("CCC1(C)CC(=O)NC1=O (centres undefined) [ETHOSUXIMIDE]", "722 mg/kg"),
    ("COCC(C(=O)N1CCN(c2ccc(F)cc2)CC1)N1C(=O)CCC1=O (centres undefined)", "306 mg/kg"),
    ("COCC(C(=O)N1CCN(c2ccc(C(F)(F)F)cc2)CC1)N1C(=O)CCC1=O (centres undefined)", "156 to 199 mg/kg"),
    ("COC[C@@H](NC(C)=O)C(=O)NCc1ccccc1 [LACOSAMIDE]", "33.7 mg/kg"),
    ("COCC(C(=O)N1CCN(c2ccc(C)cc2)CC1)N1C(=O)CCC1=O (centres undefined)", "204 mg/kg"),
    ("COCC(C(=O)N1CCN(c2cccc(Cl)c2Cl)CC1)N1C(=O)CCC1=O (centres undefined)", "224 to 261 mg/kg"),
    ("COCC(C(=O)N1CCN(C)CC1)N1C(=O)CCC1=O (centres undefined)", "> 500 mg/kg"),
    ("COCC(C(=O)N1CCN(c2cccc(C)c2)CC1)N1C(=O)CCC1=O (centres undefined)", "213 mg/kg"),
    ("COC[C@@H](C(=O)N1CCN(c2ccc(C(F)(F)F)cc2)CC1)N1C(=O)CCC1=O", "243 to 246 mg/kg"),
    ("COC[C@H](C(=O)N1CCN(c2ccc(C(F)(F)F)cc2)CC1)N1C(=O)CCC1=O", "167 to 194 mg/kg"),
]
